- experiment notes: MLM, hepatic metabolic stability
- Format: in vitro ADME
- experimental conditions: mouse hepatic microsome, amount at 30 minutes compared with 0 minutes
- Experimental: For the sake of retaining efficacy of novel drugs and preventing side-effects, hepatic metabolic stability is regarded as very important. Hepatic metabolic stability is typically determined using microsome or S9. In the present test, a microsome having CYP450 as a main component, which plays a great role in metabolism, was used to evaluate the metabolic stability. This assay was performed in a 200 l volume in a 13 ml glass tube using mouse hepatic microsome whose activity was measured. […]
readout: MLM (%)

molecule	observed value
C=CCN1CC(=O)N2[C@@H](Cc3ccc(O)cc3)C(=O)N(Cc3cccc4c(C(=O)N5CCC(N6CCN(C)CC6)CC5)cn(C)c34)C[C@@H]2N1C(=O)NCc1ccccc1	73.4
C=CCN1CC(=O)N2[C@@H](Cc3ccc(O)cc3)C(=O)N(Cc3cccc4c(-c5ccc(C(=O)Nc6ccc(N7CCN(C(C)=O)CC7)cc6)cc5)cn(C)c34)C[C@@H]2N1C(=O)NCc1ccccc1	88
C=CCN1CC(=O)N2[C@@H](Cc3ccc(O)cc3)C(=O)N(Cc3cccc4c(-c5ccc(C(=O)NC6CCC(NC(=O)OC(C)(C)C)CC6)cc5)cn(C)c34)C[C@@H]2N1C(=O)NCc1ccccc1 (some centres unmarked)	107
C=CCN1CC(=O)N2C(Cc3ccc(O)cc3)C(=O)N(Cc3cccc4c(C(=O)Nc5ccc(N6CCN(c7ccccc7OC)CC6)nc5)cn(C)c34)CC2N1C(=O)NCc1ccccc1 (centres unmarked)	61.9
C=CCN1CC(=O)N2[C@@H](Cc3ccc(O)cc3)C(=O)N(Cc3cccc4c(-c5ccc(NC(=O)Nc6ccc(OC)nc6)cc5)cn(C)c34)C[C@@H]2N1C(=O)NCc1ccccc1 [Compound D-77]	65.4
C=CCN1CC(=O)N2[C@@H](Cc3ccc(O)cc3)C(=O)N(Cc3cccc4c(-c5ccc(NC(=O)Nc6ccccc6)cc5)cn(C)c34)C[C@@H]2N1C(=O)NCc1ccccc1	73.4
C=CCN1CC(=O)N2[C@@H](Cc3ccc(O)cc3)C(=O)N(Cc3cccc4c(C(=O)N5CCC(NC(=O)c6ccc(N(C)C)cc6)CC5)cn(C)c34)C[C@@H]2N1C(=O)NCc1ccccc1	58.5
C=CCN1CC(=O)N2C(CN(Cc3cccc4c(C(=O)Nc5ccc(N6CCOCC6)nc5)cn(C)c34)C(=O)[C@@H]2Cc2ccc(O)cc2)N1C(=O)NCc1ccccc1 (some centres unmarked)	36
C=CCN1CC(=O)N2[C@@H](Cc3ccc(O)cc3)C(=O)N(Cc3cccc4c(-c5ccc(NC(=O)c6ccc(N)nc6)cc5)cn(C)c34)C[C@@H]2N1C(=O)NCc1ccccc1	65
C=CCN1CC(=O)N2[C@@H](Cc3ccc(O)cc3)C(=O)N(Cc3cccc4c(-c5ccc(C(=O)NN6CCN(C)CC6)cc5)cn(C)c34)C[C@@H]2N1C(=O)NCc1ccccc1	49.4
C=CCN1CC(=O)N2[C@@H](Cc3ccc(O)cc3)C(=O)N(Cc3cccc4c(C(=O)N5CC(N6CCN(C)CC6)C5)cn(C)c34)C[C@@H]2N1C(=O)NCc1ccccc1	67.2

* * *

- Tested on: MV-4-11 (human, Acute Myeloid Leukemia cell line) cells
- experiment notes: Cell growth inhibition assay, GI50 of MV-4-11
- Assay type: cell-based
- experimental conditions: Homo sapiens, MV4-11, 72 h, MV-4-11 cells

chemical string	GI50 (nM)
C=CCN1CC(=O)N2[C@@H](Cc3ccc(O)cc3)C(=O)N(Cc3cccc4c(-c5ccc(C(N)=O)cc5)cn(C)c34)C[C@@H]2N1C(=O)NCc1ccccc1	1.2
C=CCN1CC(=O)N2[C@@H](Cc3ccc(O)cc3)C(=O)N(Cc3cccc4c(C(=O)N(C)CCCc5c(C)nn(C)c5C)cn(C)c34)C[C@@H]2N1C(=O)NCc1ccccc1	6.1
C=CCN1CC(=O)N2[C@@H](Cc3ccc(O)cc3)C(=O)N(Cc3cccc4c(-c5ccc(C(=O)Nc6ccc(N7CCNCC7)cc6)cc5)cn(C)c34)C[C@@H]2N1C(=O)NCc1ccccc1	1.2
C=CCN1CC(=O)N2[C@@H](Cc3ccc(O)cc3)C(=O)N(Cc3cccc4c(C(=O)N5CCN(Cc6ccccc6)CC5)cn(C)c34)C[C@@H]2N1C(=O)NCc1ccccc1	2.3
C=CCN1CC(=O)N2[C@@H](Cc3ccc(O)cc3)C(=O)N(Cc3cccc4c(-c5cccc(C(=O)NC6CCCCC6)c5)cn(C)c34)C[C@@H]2N1C(=O)NCc1ccccc1	3.3

* * *

- Test system: MV-4-11 (human, Acute Myeloid Leukemia cell line) cells
- experiment notes: Cell growth inhibition assay, GI50 of MV-4-11
- Assay type: cell-based
- experimental conditions: Homo sapiens, MV4-11, 72 h, MV-4-11 cells
- Method: The anti-proliferative activity (cell growth inhibition assay) of the compounds according to the present invention against AML (Acute Myeloid Leukemia) cancer cells was measured. […] The lower the GI50 value, the higher the anti-proliferative activity. […] Also, the background absorbance was measured during the treatment with the test compounds by replacing the test compound with IMDM in the negative control plate. […] The GI50 values were calculated using a Prism 3.0 program.
Output schema: class label derived from GI50. Mapping: low bracket (below 2 nM), middle bracket (2 nM to below 9 nM), high bracket (9 nM or more)

molecule	assay target	assigned label
C=CCN1CC(=O)N2[C@@H](Cc3ccc(O)cc3)C(=O)N(Cc3cccc4c(C(=O)NCc5cccc(C)n5)cn(C)c34)C[C@@H]2N1C(=O)NCc1ccccc1	MV-4-11 (human, Acute Myeloid Leukemia cell line) cells	middle bracket
C=CCN1CC(=O)N2[C@@H](Cc3ccc(O)cc3)C(=O)N(Cc3cccc4c(-c5ccc(NC(=O)Nc6ncccn6)cc5)cn(C)c34)C[C@@H]2N1C(=O)NCc1ccccc1	MV-4-11 (human, Acute Myeloid Leukemia cell line) cells	high bracket
C=CCN1CC(=O)N2[C@@H](Cc3ccc(O)cc3)C(=O)N(Cc3cccc4c(C(=O)N5CCN(Cc6cccc(OC)c6)CC5)cn(C)c34)C[C@@H]2N1C(=O)NCc1ccccc1	MV-4-11 (human, Acute Myeloid Leukemia cell line) cells	middle bracket
C=CCN1CC(=O)N2C(Cc3ccc(O)cc3)C(=O)N(Cc3cccc4c(C(=O)Nc5ccc(N6CCN(CCC)CC6)nc5)cn(C)c34)CC2N1C(=O)NCc1ccccc1 (centres unmarked)	MV-4-11 (human, Acute Myeloid Leukemia cell line) cells	low bracket
C=CCN1CC(=O)N2[C@@H](Cc3ccc(O)cc3)C(=O)N(Cc3cccc4c(C(=O)NCc5cccc(N6CCOCC6)n5)cn(C)c34)C[C@@H]2N1C(=O)NCc1ccccc1	MV-4-11 (human, Acute Myeloid Leukemia cell line) cells	low bracket
C=CCN1CC(=O)N2[C@@H](Cc3ccc(O)cc3)C(=O)N(Cc3cccc4c(-c5ccc(NC(=O)NCCc6ccccc6)cc5)cn(C)c34)C[C@@H]2N1C(=O)NCc1ccccc1	MV-4-11 (human, Acute Myeloid Leukemia cell line) cells	high bracket
C=CCN1CC(=O)N2[C@@H](Cc3ccc(O)cc3)C(=O)N(Cc3cccc4c(-c5ccc(NC(=O)c6ccc(-n7ccnc7)nc6)cc5)cn(C)c34)C[C@@H]2N1C(=O)NCc1ccccc1	MV-4-11 (human, Acute Myeloid Leukemia cell line) cells	low bracket
C=CCN1CC(=O)N2C(CN(Cc3cccc4c(C(=O)Nc5ccc(N6CCC(N7CCOCC7)CC6)nc5)cn(C)c34)C(=O)[C@@H]2Cc2ccc(O)cc2)N1C(=O)NCc1ccccc1 (some centres unmarked)	MV-4-11 (human, Acute Myeloid Leukemia cell line) cells	low bracket
C=CCN1CC(=O)N2[C@@H](Cc3ccc(O)cc3)C(=O)N(Cc3cccc4c(C(=O)Nc5ccc(OC(C)(C)C)cc5)cn(C)c34)C[C@@H]2N1C(=O)NCc1ccccc1	MV-4-11 (human, Acute Myeloid Leukemia cell line) cells	high bracket
C=CCN1CC(=O)N2[C@@H](Cc3ccc(O)cc3)C(=O)N(Cc3cccc4c(C(=O)NCCc5cccnc5)cn(C)c34)C[C@@H]2N1C(=O)NCc1ccccc1	MV-4-11 (human, Acute Myeloid Leukemia cell line) cells	middle bracket
C=CCN1CC(=O)N2C(Cc3ccc(O)cc3)C(=O)N(Cc3cccc4c(C(=O)Nc5ccc(NCC(C)(C)C)nc5)cn(C)c34)CC2N1C(=O)NCc1ccccc1 (centres unmarked)	MV-4-11 (human, Acute Myeloid Leukemia cell line) cells	low bracket
C=CCN1CC(=O)N2[C@@H](Cc3ccc(O)cc3)C(=O)N(Cc3cccc4c(-c5cnc(N(C)C)nc5)cn(C)c34)C[C@@H]2N1C(=O)NCc1ccccc1	MV-4-11 (human, Acute Myeloid Leukemia cell line) cells	low bracket
C=CCN1CC(=O)N2[C@@H](Cc3ccc(O)cc3)C(=O)N(Cc3cccc4c(C(=O)N(C)Cc5ccccn5)cn(C)c34)C[C@@H]2N1C(=O)NCc1ccccc1	MV-4-11 (human, Acute Myeloid Leukemia cell line) cells	high bracket
C=CCN1CC(=O)N2[C@@H](Cc3ccc(O)cc3)C(=O)N(Cc3cccc4c(C(=O)N5CCN(c6ccccc6)CC5)cn(C)c34)C[C@@H]2N1C(=O)NCc1ccccc1	MV-4-11 (human, Acute Myeloid Leukemia cell line) cells	high bracket
C=CCN1CC(=O)N2[C@@H](Cc3ccc(O)cc3)C(=O)N(Cc3cccc4c(-c5ccc(C(=O)Nc6ccc(N)cc6)cc5)cn(C)c34)C[C@@H]2N1C(=O)NCc1ccccc1	MV-4-11 (human, Acute Myeloid Leukemia cell line) cells	low bracket
C=CCN1CC(=O)N2[C@@H](Cc3ccc(O)cc3)C(=O)N(Cc3cccc4c(-c5ccc(C(=O)N6CCN(C)CC6)cc5)cn(C)c34)C[C@@H]2N1C(=O)NCc1ccccc1	MV-4-11 (human, Acute Myeloid Leukemia cell line) cells	low bracket
C=CCN1CC(=O)N2[C@@H](Cc3ccc(O)cc3)C(=O)N(Cc3cccc4c(-c5ccc(C(=O)Nc6ccccc6)cc5)cn(C)c34)C[C@@H]2N1C(=O)NCc1ccccc1	MV-4-11 (human, Acute Myeloid Leukemia cell line) cells	middle bracket
